Experiment: PZQ-ketoconazole DDI pharmacokinetic study in healthy volunteers
Type: in vivo, human
Conditions: male, human, plasma, oral, 20 mg/kg, 20 mg/kg PZQ plus 200 mg ketoconazole, n = 9; read-out: AUCt0‐tlast, treatment mean (SD)
Description: Plasma samples were obtained from the AiBST biobank. […] Each participant served as their own control. […] The AUC extrapolated to infinite time was calculated as AUC∞ = AUCt + Ct/K el where Ct is the concentration of the last sample taken and K el is the terminal elimination rate constant. The terminal elimination rate constant K el was determined by least squares regression analysis in the terminal phase of the semi log concentration-time curve. […]

- compound: "O=C(C1CCCCC1)N1CC(=O)N2CCc3ccccc3[C@H]2C1 [S‐PZQ, S‐Praziquantel]"
  AUC [ng·h/mL]: 4910
